Just for reference, PubChem BioAssay (NCI) is where these values come from.

- Test system: SK-OV-3 ovarian
- MEASUREMENT NOTES: NCI tumour cell line growth inhibition, 48 h
Please provide measured TGI for the entries that follow.

| COMPOUND | SYSTEM UNDER TEST | TGI |
| --- | --- | --- |
| Clc1ccc(CCN2CCOCC2)c(Cl)c1 | SK-OV-3 ovarian | > 100 µM |

Your task in this section: give TGI for each listed record.
1. C=C(C)[C@@H]1CC[C@]2(C#N)CC[C@]3(C)[C@H](CC[C@@H]4[C@@]5(C)CCCNC(C)(C)[C@@H]5CC[C@]43C)[C@@H]12
2. CCOC(=O)Cn1c(C)nc2nn(Cc3ccccc3)cc2c1=O
3. Nc1nc(Cl)cc(NCCCCCCCCCCNc2cc(Cl)nc(N)n2)n1
4. CC(=O)Oc1ccc(-c2c(OC(C)=O)c(OC(C)=O)c(-c3ccc(OC(C)=O)c(OC(C)=O)c3)c(OC(C)=O)c2OC(C)=O)cc1

Reply text:
["25.4 µM", "> 100 µM", "> 100 µM", "69 µM"]

Your task in this section: give TGI for each listed record.
1. O=C(N/N=C\c1cc(Cl)ccc1O)N/N=C/c1cc(Cl)ccc1O
2. Cc1cc(Br)cc(C)c1NC(=O)C(=O)C(C(=O)c1ccc(Cl)c(Cl)c1)C1OC(=O)c2ccccc21 (stereo not given)
3. CC(=O)Nc1oc(C)nc1C#N
4. CC(C)=CCC/C(C)=C/CCC1(C)C2COC(=O)C21 (stereo not given)
5. COc1cccc2c1C(=O)c1c(O)c3c(c(O)c1C2=O)C[C@](O)(C(=O)CO)CC3OC1CC(N)C(OC2CCCCO2)C(C)O1 (stereo not given in full)
6. CC12CC(=O)NN=C1c1ccccc1C2 (stereo not given)

Reply text:
["> 100 µM", "> 100 µM", "> 100 µM", "> 100 µM", "8.28 µM", "> 100 µM"]

Your task in this section: give TGI for each listed record.
1. C[C@@H]1CC[C@H]2C(CN3CCN(CC4=C(C(F)(F)F)O[C@@H]5O[C@@]6(C)CC[C@H]7[C@H](C)CC[C@@H]4[C@@]57OO6)CC3)=C(C(F)(F)F)O[C@@H]3O[C@@]4(C)CC[C@@H]1[C@]32OO4
2. COC(=O)C1CC(C=O)=C(SC)N1 (stereo not given)
3. CN(CCc1ccccn1)C(=S)N/N=C/c1ccccn1

Reply text:
1. > 100 µM
2. > 50 µM
3. > 51.3 µM

Inquiry: Any idea what TGI was measured for Cc1cc(C(=O)NCCN(C)C)c2nc3ccccc3nc2c1 ?
Reply text: > 46 µM

----------
- System: SN12C renal
- MEASUREMENT NOTES: NCI tumour cell line growth inhibition, 48 h
QUANTITY: GI50

Example cases with answers are listed next.
| COMPOUND | SYSTEM UNDER TEST | GI50 |
| --- | --- | --- |
| COc1cc(C=NCC(=O)CSC(c2ccccc2)c2ccccc2)cc(OC)c1OC | SN12C renal | 25.8 µM |
| Cn1cc(/C=C2\C(=O)Nc3cccnc32)c2ccccc21 | SN12C renal | 9.88 µM |
| O.O=[Se](=O)(O)O.[NH-]C1CCCCC1[NH-].[Pt+2] (stereo unspecified) | SN12C renal | 23.3 µM |
| Brc1ccc2[nH]cc(-c3nc(-c4c[nH]c5ccncc45)cs3)c2c1 | SN12C renal | 1.79 µM |
| COc1ccccc1OCC(O)CO (stereo unspecified) | SN12C renal | > 100 µM |

Let us examine a further case.
Inquiry: Any idea what GI50 was measured for CC1=CC(=O)c2[nH]c3ccccc3c2C1=O ?
Reply text: 4.59 µM

----------
- Test system: NCI-H460 lung
- MEASUREMENT NOTES: NCI tumour cell line growth inhibition, 48 h
QUANTITY: TGI (µM)
Answers are plain numbers, in µM.

| CHEMICAL STRING | RECORDED MEASUREMENT |
| --- | --- |
| N#CCc1nc2c(s1)C(=O)c1ccccc1C2=O | 47.6 |

Let us examine a further case.
Inquiry: Any idea what TGI was measured for CCc1ccc(/C=C2/SC(=S)NC2=O)cc1 ?
Reply text: 54.8

----------
- System: SF-295 CNS
- MEASUREMENT NOTES: NCI tumour cell line growth inhibition, 48 h
Please provide measured TGI for the entries that follow.

Example cases with answers are listed next.
| COMPOUND | QUANTITY | RECORDED MEASUREMENT |
| --- | --- | --- |
| CCCS(=O)OC1C(C2COC(C)(C)O2)OC2OC(C)(C)OC21 (stereo not drawn) | TGI | 36.1 µM |
| OCC1CC2CC1C1(C2)OCCO1 (stereo not drawn) | TGI | > 100 µM |

Let us examine a further case.
Inquiry: Any idea what TGI was measured for C=C1C[C@]23CC[C@@H]4C(CO)(CO)CC(=O)C[C@]4(C)[C@@H]2C(O)C[C@H]1C3 (stereo partly drawn) ?
Reply text: > 100 µM

----------
Please provide measured TGI for the entries that follow.
- Test system: SN12C renal
- MEASUREMENT NOTES: NCI tumour cell line growth inhibition, 48 h

| CHEMICAL STRING | SYSTEM UNDER TEST | QUANTITY | RECORDED MEASUREMENT |
| --- | --- | --- | --- |
| Cc1[nH]nc(C(=O)N/N=C/c2cccs2)c1N=NN(C)C | SN12C renal | TGI | > 100 µM |
| CN1C(C(=O)Nc2ccccn2)=C(O)c2ccccc2S1(=O)=O | SN12C renal | TGI | > 100 µM |

Let us examine a further case.
Inquiry: Any idea what TGI was measured for OCC1=C[C@@](COCc2ccccc2)(OCc2ccccc2)[C@@H](OCc2ccccc2)[C@@H]1OCc1ccccc1 ?
Reply text: 10.3 µM

----------
- Test system: LOX IMVI melanoma
- MEASUREMENT NOTES: NCI tumour cell line growth inhibition, 48 h
Please provide measured GI50 for the entries that follow.

Example cases with answers are listed next.
| CHEMICAL STRING | SYSTEM UNDER TEST | RECORDED MEASUREMENT |
| --- | --- | --- |
| C=C(C)[C@@H]1CC[C@]2(C#N)CC[C@]3(C)[C@H](CC[C@@H]4[C@@]5(C)CCCNC(C)(C)[C@@H]5CC[C@]43C)[C@@H]12 | LOX IMVI melanoma | 1.67 µM |
| NC(=O)c1ccc(-c2c3ccccc3cc3c2ccc2ccccc23)cc1 | LOX IMVI melanoma | 4.86 µM |
| Cn1cc(/C=C2\C(=O)Nc3cccnc32)c2ccccc21 | LOX IMVI melanoma | 7.77 µM |

Your task in this section: give GI50 for each listed record.
1. CCc1ccc(/C=C2/SC(=S)NC2=O)cc1
2. CCOc1ccc(N2C(N)=NC(N)=NC2(C)C)cc1
3. CCn1c(-c2cc3ccccc3cc2OC(=O)c2ccccc2)n[nH]c1=S

Reply text:
22.4 µM
45.8 µM
26.6 µM

----------
Please provide measured TGI for the entries that follow.
- Tested on: HL-60(TB) leukemia
- MEASUREMENT NOTES: NCI tumour cell line growth inhibition, 48 h
One number for each entry, in µM.

Example cases with answers are listed next.
| MOLECULE | RECORDED MEASUREMENT |
| --- | --- |
| CCN(CC)c1ccc(/C=N\NC(=O)c2cccc(Nc3ccnc(C(F)(F)F)c3)c2)c(O)c1 | 1.05 |
| COc1ccc(/C(Cl)=C(\C=O)c2ccc(Cl)cc2)cc1 | 16.6 |

Let us examine a further case.
Inquiry: Any idea what TGI was measured for CC(Cl)CC(=O)Nc1ccc2c(c1)oc(=O)c1cc(NC(=O)CC(C)Cl)ccc12 (stereo not drawn) ?
Reply text: 29.3

----------
- Tested on: A549 NSCLC
- MEASUREMENT NOTES: NCI tumour cell line growth inhibition, 48 h
QUANTITY: TGI

Example cases with answers are listed next.
| COMPOUND | TGI |
| --- | --- |
| Cc1ccc2c3ccc4c(c3n(C)c2c1)C(=O)C=CC4=O | > 10 µM |
| COc1ccc(/C(Cl)=C(\C=O)c2ccc(Cl)cc2)cc1 | > 100 µM |
| CNc1ccc([N+](=O)[O-])cc1C(=O)N1CCC[C@H]1CO | > 100 µM |
| NC(=O)Nc1n[nH]c(-c2ccccc2)n1 | > 100 µM |
| O=c1oc2ccccc2cc1-c1nc2ccccc2s1 | 16.8 µM |
| CCN(CC)c1ccc(/C=N\NC(=O)c2cccc(Nc3ccnc(C(F)(F)F)c3)c2)c(O)c1 | > 100 µM |

Your task in this section: give TGI for each listed record.
1. CN1C(C(=O)Nc2ccccn2)=C(O)c2ccccc2S1(=O)=O
2. Cc1ccc(NC(=O)NC23CC4CC(CC(F)(C4)C2)C3)cc1
3. C[C@H]1CC(=O)[C@@]2(O)C#C/C=C\C#C[C@@H]3Nc4c(cc(O)c5c4C(=O)c4ccccc4C5=O)[C@]24O[C@]314
4. CC1=CC(=O)c2[nH]c3ccccc3c2C1=O
5. Cc1ccc(C)c(NC(=O)CCc2n[nH]c(=S)o2)c1
6. O/N=C1/CCCCC1NO (stereo not drawn)
7. Cc1ccc(Oc2cc(C)ccc2P(=O)(O)O)cc1

Reply text:
> 100 µM
> 100 µM
0.82 µM
> 25 µM
> 100 µM
> 100 µM
> 100 µM

Your task in this section: give TGI for each listed record.
1. COc1ccc2c(c1)[n+]([O-])c(-c1ccc(Cl)c(Cl)c1)c(N)[n+]2[O-]
2. Cc1cc(C(=O)NCCN(C)C)c2nc3ccccc3nc2c1
3. Cc1cc(I)cc(CN(C)CCCCN2CCCC2)c1O
4. CCCS(=O)OC1C(C2COC(C)(C)O2)OC2OC(C)(C)OC21 (stereo not drawn)
5. COc1ccc(N2C(=O)CSC2c2cc(OC)c(OC)c(OC)c2)cc1 (stereo not drawn)

Reply text:
> 100 µM
> 58.7 µM
> 100 µM
49.6 µM
83.4 µM
